Recorded below: pIC50, system UniProtKB P10415.
pIC50: −log10 of the molar value.

Known pIC50 results, listed for orientation:
compound	target-system	pIC50
CCCCN(CCCC)C(=O)c1cc(C)n(-c2ccc(NC(=O)c3cccnc3Nc3cccc(C(F)(F)F)c3)cc2C(=O)N2Cc3ccccc3C[C@H]2CO)n1 [Example 150]	UniProtKB P10415	6.22
CCCCN(CCCC)C(=O)c1cc(C)n(-c2ccc(NC(=O)C(CC(=O)N3CCCC3)c3ccccc3)cc2C(=O)N2Cc3ccccc3C[C@H]2CO)n1 (stereo partly drawn) [Example 27]	UniProtKB P10415	7.15 to 7.23

Proceed to the following item.
Identify the measured pIC50 of CCCCN(CCCC)C(=O)c1cc(C)n(-c2ccc(NC(=O)c3sccc3C)cc2C(=O)N2Cc3ccccc3C[C@H]2CO)n1 [Example 81] for UniProtKB P10415.
5.83 to 5.98

---

- target-system: UniProt P10415
pIC50: −log10 of the molar value.
readout-kind: pIC50

Known pIC50 results, listed for orientation:
In [3]: df
Out[3]:
                                   compound  readout_kind  reported_measurement
0  CCCCN(CCCC)C(=O)c1cc(C)n(-c2ccc(NC(=O)Cc3c(F)cccc3Cl)cc2C(=O)N2Cc3ccccc3C[C@H]2CO)n1         pIC50          6.22 to 6.24
1  CCCCN(CCCC)C(=O)c1cc(C)n(-c2ccc(NC(=O)COc3cc(Cl)c(Cl)cc3Cl)cc2C(=O)N2Cc3ccccc3C[C@H]2CO)n1         pIC50          6.86 to 6.88
2  CCCCN(CCCC)C(=O)c1cc(C)n(-c2ccc(NC(=O)c3[nH]c4ccccc4c3-c3ccccc3)cc2C(=O)N2Cc3ccccc3C[C@H]2CO)n1         pIC50          6.19 to 6.21
3  CCCCN(CCCC)C(=O)c1cc(C)n(-c2ccc(NC(=O)[C@H](OC)c3ccc4ccccc4c3)cc2C(=O)N2Cc3ccccc3C[C@H]2CO)n1         pIC50          7.35 to 7.36
4  CCCCN(CCCC)C(=O)c1cc(C)n(-c2ccc(NC(=O)C(C)CC(=O)O)cc2C(=O)N2Cc3ccccc3C[C@H]2CO)n1 (stereo partly drawn) [Example 37]         pIC50          6.76 to 6.77

Name the reported pIC50 value associated with the compound `CCCCN(CCCC)C(=O)c1cc(C)n(-c2ccc(NC(=O)c3cccc(Cl)c3O)cc2C(=O)N2Cc3ccccc3C[C@H]2CO)n1`
7.05 to 7.09

---

Quick list: IC50 per entry.
- target-system: BCL-2 (binding to BAK peptide) (Homo sapiens, UniProt P10415)

                                   compound  reported_measurement
0  CCCCN(CCCC)C(=O)c1cc(C)n(-c2ccc(NC(=O)CCc3nc(-c4ccccc4)no3)cc2C(=O)N2Cc3ccccc3C[C@H]2CO)n1       95.2 to 96.7 nM
1  CCCCN(CCCC)C(=O)c1cc(C)n(-c2ccc(NC(=O)CCCOCc3ccccc3)cc2C(=O)N2Cc3ccccc3C[C@H]2CO)n1         310 to 360 nM
2  CCCCN(CCCC)C(=O)c1cc(C)n(-c2ccc(NC(=O)CCNC(C)=O)cc2C(=O)N2Cc3ccccc3C[C@H]2CO)n1         722 to 725 nM
3  CCCCN(CCCC)C(=O)c1cc(C)n(-c2ccc(NC(=O)[C@H](C)c3ccccc3)cc2C(=O)N2Cc3ccccc3C[C@H]2CO)n1         562 to 660 nM
4  CCCCN(CCCC)C(=O)c1cc(C)n(-c2ccc(NC(=O)CC(C)S(=O)(=O)c3ccc(Cl)cc3)cc2C(=O)N2Cc3ccccc3C[C@H]2CO)n1 (stereo partly drawn)         159 to 187 nM

Identify the measured IC50 of `CCCCN(CCCC)C(=O)c1cc(C)n(-c2ccc(NC(=O)c3ccc4c(C)c(C)[nH]c4c3)cc2C(=O)N2Cc3ccccc3C[C@H]2CO)n1` for BCL-2 (binding to BAK peptide) (Homo sapiens, UniProt P10415).
432 to 440 nM

---

- target-system: BCL-2 (binding to BAD peptide) (Homo sapiens)
- Sequence (P10415 whole entry): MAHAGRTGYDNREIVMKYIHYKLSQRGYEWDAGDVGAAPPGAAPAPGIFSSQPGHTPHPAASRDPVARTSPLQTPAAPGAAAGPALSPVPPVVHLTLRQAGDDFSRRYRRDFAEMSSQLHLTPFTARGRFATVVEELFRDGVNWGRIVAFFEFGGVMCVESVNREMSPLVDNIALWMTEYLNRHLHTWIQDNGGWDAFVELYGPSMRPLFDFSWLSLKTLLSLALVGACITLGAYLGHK
Quick list: IC50 per entry.

Known IC50 results, listed for orientation:
molecule	IC50
CCCCN(CCCC)C(=O)c1cc(C)n(-c2ccc(NC(=O)c3cccc(-c4ccccc4F)c3)cc2C(=O)N2Cc3ccccc3C[C@H]2CO)n1 [Example 140]	315 to 343 nM
CCCCN(CCCC)C(=O)c1cc(C)n(-c2ccc(NC(=O)Cc3cccc4ccccc34)cc2C(=O)N2Cc3ccccc3C[C@H]2CO)n1 [Example 3]	48.9 to 58 nM
CCCCN(CCCC)C(=O)c1cc(C)n(-c2ccc(NC(=O)c3ccc(Cl)cc3I)cc2C(=O)N2Cc3ccccc3C[C@H]2CO)n1 [Example 82]	1330 to 1470 nM
CCCCN(CCCC)C(=O)c1cc(C)n(-c2ccc(NC(=O)C3(c4ccccc4)CC3)cc2C(=O)N2Cc3ccccc3C[C@H]2CO)n1 [Example 30]	252 to 267 nM
CCCCN(CCCC)C(=O)c1cc(C)n(-c2ccc(NC(=O)c3c(C)n(C)n(-c4ccccc4)c3=O)cc2C(=O)N2Cc3ccccc3C[C@H]2CO)n1 [Example 73]	74.1 to 100 nM
CCCCN(CCCC)C(=O)c1cc(C)n(-c2ccc(NC(=O)Cc3ccccc3F)cc2C(=O)N2Cc3ccccc3C[C@H]2CO)n1 [Example 57]	77.3 to 79.6 nM
CCCCN(CCCC)C(=O)c1cc(C)n(-c2ccc(NC(=O)COc3ccccc3)cc2C(=O)N2Cc3ccccc3C[C@H]2CO)n1 [Example 4]	78.7 to 97.4 nM
CCCCC(CCCC)C(=O)c1cc(C)n(-c2ccc(NC(=O)C(CC(=O)O)C3CCCCC3)cc2C(=O)N2Cc3ccccc3C[C@H]2CO)n1 (stereo partly shown) [Example 103]	54.1 to 55.9 nM

Proceed to the following item.
Name the reported IC50 value associated with the molecule CCCCN(CCCC)C(=O)c1cc(C)n(-c2ccc(NC(=O)CCCOCc3ccccc3)cc2C(=O)N2Cc3ccccc3C[C@H]2CO)n1 [Example 133]
410 to 438 nM

---

- target-system: UniProt:P10415
readout-kind: IC50

Known IC50 results, listed for orientation:
In [3]: df
Out[3]:
                           substance_smiles   target_system  readout_kind  reported_measurement
0  CCCCN(CCCC)C(=O)c1cc(C)n(-c2ccc(NC(=O)Cc3cccc(Br)c3)cc2C(=O)N2Cc3ccccc3C[C@H]2CO)n1  UniProt:P10415          IC50       56.1 to 60.8 nM
1  CCCCN(CCCC)C(=O)c1cc(C)n(-c2ccc(NC(C)=O)cc2C(=O)N2Cc3ccccc3C[C@H]2CO)n1  UniProt:P10415          IC50         776 to 791 nM

Proceed to the following item.
Identify the measured IC50 of `CCCCN(CCCC)C(=O)c1cc(C)n(-c2ccc(NC(=O)CS(=O)(=O)c3ccccc3)cc2C(=O)N2Cc3ccccc3C[C@H]2CO)n1` for UniProt:P10415.
348 to 392 nM

---

- target-system: BCL-2 (binding to BAK peptide) (Homo sapiens, UniProt P10415)
Quick list: IC50 per entry.

Known IC50 results, listed for orientation:
>>> df
                                   compound                             target_system  reported_measurement
0  CCCCN(CCCC)C(=O)c1cc(C)n(-c2ccc(NC(=O)[C@H](OC)c3ccc4ccccc4c3)cc2C(=O)N2Cc3ccccc3C[C@H]2CO)n1  BCL-2 (binding to BAK peptide) (Homo sapiens, UniProt P10415)   0.0361 to 0.0368 µM
1  CCCCN(CCCC)C(=O)c1cc(C)n(-c2ccc(NC(=O)CC(C(=O)O)c3ccccc3)cc2C(=O)N2Cc3ccccc3C[C@H]2CO)n1 (stereo partly drawn)  BCL-2 (binding to BAK peptide) (Homo sapiens, UniProt P10415)    0.055 to 0.0613 µM

Proceed to the following item.
Identify the measured IC50 of CCCCN(CCCC)C(=O)c1cc(C)n(-c2ccc(NC(=O)C(C)CC(=O)O)cc2C(=O)N2Cc3ccccc3C[C@H]2CO)n1 (stereo partly drawn) for BCL-2 (binding to BAK peptide) (Homo sapiens, UniProt P10415).
0.127 to 0.129 µM

---

Recorded below: IC50, system BCL-2 (binding to BAK peptide) (Homo sapiens).

Known IC50 results, listed for orientation:
>>> print(df.to_string())
                                   compound                             target_system  reported_measurement
0  CCCCN(CCCC)C(=O)c1cc(C)n(-c2ccc(NC(=O)COc3ccc(OCc4ccccc4)cc3)cc2C(=O)N2Cc3ccccc3C[C@H]2CO)n1  BCL-2 (binding to BAK peptide) (Homo sapiens)       1220 to 2070 nM
1  CCCCN(CCCC)C(=O)c1cc(C)n(-c2ccc(NC(=O)CN3CC(c4ccccc4)CC3=O)cc2C(=O)N2Cc3ccccc3C[C@H]2CO)n1 (stereo partly shown)  BCL-2 (binding to BAK peptide) (Homo sapiens)         94 to 98.2 nM
2  CCCCN(CCCC)C(=O)c1cc(C)n(-c2ccc(NC(=O)Cc3cccc(Br)c3)cc2C(=O)N2Cc3ccccc3C[C@H]2CO)n1  BCL-2 (binding to BAK peptide) (Homo sapiens)         43.8 to 53 nM

Proceed to the following item.
Identify the measured IC50 of `CCCCN(CCCC)C(=O)c1cc(C)n(-c2ccc(NC(=O)c3ncccc3O)cc2C(=O)N2Cc3ccccc3C[C@H]2CO)n1` for BCL-2 (binding to BAK peptide) (Homo sapiens).
238 to 277 nM
